Consider the following compounds; for each one, report its melting point.

(Q) So what's the measured melting point for this one? "O=C(O)c1ccc(-c2cc(-c3ccc(C(F)(F)F)cc3)on2)cc1"
(A) > 300 °C

(Q) Name the recorded melting point for "COC(=O)c1ccc(-c2cc(-c3ccc(Cl)cc3)no2)cc1" .
(A) 225 to 226 °C

(Q) melting point lookup needed for "Nc1ccccc1-c1nnc(-c2ccc(C(=O)O)cc2)o1" , thanks.
(A) > 300 °C

(Q) // lookup melting point for COC(=O)c1ccc(-c2cc(-c3ccccc3)no2)cc1 [Example 17, methyl 4-(3-phenyl-5-isoxazolyl)benzoate]
(A) 205 to 206 °C

(Q) Need melting point, item "COC(=O)c1ccc(-c2nc(-c3ccc(Cl)cc3)no2)c(N)c1"
(A) 227 to 228 °C

(Q) I have this compound here, "CCOC(=O)c1ccc(-c2nc(-c3ccccc3)ccc2Cl)cc1" , and I need its recorded melting point.
(A) 81 to 82 °C

(Q) Which melting point value is on record for "CCOC(=O)c1ccc(-c2nnc(-c3ccccc3N)o2)cc1" ?
(A) 174 to 175 °C

(Q) I have this compound here, "O=C(O)c1ccc(-c2cc(-c3ccc(Cl)cc3)no2)cc1" , and I need its recorded melting point.
(A) > 300 °C

(Q) Could you tell me which melting point is on file for "CC(C)(C)c1ccc(-c2nnc(-c3ccc(C(=O)O)cc3N)o2)cc1" ?
(A) 266 to 268 °C

(Q) Would you kindly share the measured melting point for "O=Cc1cccc(-c2cc(-c3ccc(C(F)(F)F)cc3)no2)c1" ?
(A) 151 to 152 °C

(Q) Look up melting point for this compound: "O=C(O)c1ccc(-c2nnc(-c3ccc(C(F)(F)F)cc3)o2)cc1"
(A) > 300 °C

(Q) Look up melting point: "O=C(O)c1ccc(-c2cc(-c3ccccc3)no2)cc1"
(A) > 300 °C

(Q) Which melting point value is on record for "O=C(O)c1ccc(-c2nc(-c3cccc(Oc4ccccc4)c3)no2)cc1" ?
(A) 292 to 293 °C

(Q) // melting point lookup, key: "O=Cc1ccc(-c2nnc(-c3ccccc3[N+](=O)[O-])o2)cc1"
(A) 189 to 190 °C

(Q) Suppose we examine the compound "O=C(OCc1ccccc1)c1cc(-c2ccc(-c3ccc(C(F)(F)F)cc3)o2)ccc1OCc1ccccc1" ; what melting point value has been reported?
(A) 97 to 98 °C

(Q) Need melting point, item "COC(=O)c1ccc(-c2nnc(-c3ccc(C(F)(F)F)cc3)o2)c(N)c1"
(A) 237 to 238 °C

(Q) Name the recorded melting point for "O=C(O)c1cccc(-c2cc(-c3ccc(C(F)(F)F)cc3)no2)c1" .
(A) 272 to 273 °C

(Q) What melting point value was documented for this compound, "O=C(O)c1ccc(-c2nc(-c3ccc(Cl)cc3)no2)c([N+](=O)[O-])c1" ?
(A) 257 to 258 °C
